target: Luciferin 4-monooxygenase (Photinus pyralis); experiment: qHTS profiling assay for firefly luciferase inhibitor/activator using purifed enzyme and Km concentrations of substrates (counterscreen for miR-21 project); details: purified FLuc, luminescence inhibition; series mostly up to 57.5 µM; note: nearly all actives have a fitted effect of over 55% in size
Out of some 360,000 compounds screened, about 25,000 (6.9%) were called active. Inconclusive results (about 9%) are left out. Calls come from the whole dose curve; as a rule, active = well fitted inhibition curve with a large enough effect; inconclusive = small, poorly fitted or top-dose-only effect; inactive = flat fitted curve, though single readings scatter. For the sample, actives were picked, then their nearest neighbours and some compounds at random.
Result category, one only: active, inactive

// below: answered compounds
compound	group
COC(=O)c1ccc(NCC(=O)c2ccccc2)cc1	active
COc1ccc(NS(=O)(=O)c2ccc(C)c(C(=O)NNC(=O)c3csc(N4CCOCC4)n3)c2)cc1	inactive
COc1ccccc1C(=O)NC(CCSC)C(=O)NNC(=O)c1csc(N2CCOCC2)n1 (stereo not given)	inactive
CCOC(=O)c1nc(Nc2ccc(C(=O)OC)cc2)c2ccccc2n1	inactive

Next item in the queue.
Call for entry CSCCC(NC(=O)c1ccc(Cl)cc1Cl)C(=O)NNC(=O)c1csc(N2CCOCC2)n1 (stereo not given) :
active

###

Target: Luciferin 4-monooxygenase (Photinus pyralis)
Test: qHTS profiling assay for firefly luciferase inhibitor/activator using purifed enzyme and Km concentrations of substrates (counterscreen for miR-21 project); note: nearly all actives have a fitted effect of over 55% in size
Conditions: purified FLuc, luminescence inhibition; series mostly up to 57.5 µM
Source text: MLPCN Grant: 1 R21 NS059478-01 (miR-21 grant) Assay Provider: NCGC NCGC Assay Overview: Firefly (Photinus pyralis) luciferase is one of the most commonly used transcriptional reporters for a number of reasons. […] Although light produced in a bioluminescence reaction is of lower intensity than that produced during fluorescence emission, this is offset by little to no background light inherent to luminescent assays. […]
Hit rate of the full screen: of about 360,000 compounds, about 25,000 (6.9%) were called active. Not shown: some 9% with an inconclusive outcome. Calls follow the shape of the dose curve; as a rule, active = well fitted inhibition curve with a large enough effect; inconclusive = small, poorly fitted or top-dose-only effect; inactive = flat fitted curve, though single readings scatter. The full list was thinned out, with actives kept by preference.
I would appreciate it if you answered using one of these outcomes: Y for active, N for inactive

For orientation, consider the following solved cases.
molecule	target	group
COc1ccccc1NC(=O)c1cc(Cl)nc2ccccc12	Luciferin 4-monooxygenase (Photinus pyralis)	N
Cc1ccc(NC(=O)CN2CCc3ccccc3C2)cc1C	Luciferin 4-monooxygenase (Photinus pyralis)	N
CC(=O)Nc1ccc(S(=O)(=O)N2CCn3cccc3C2C)cc1 (centres undefined)	Luciferin 4-monooxygenase (Photinus pyralis)	N
CN1CCN(CC(=O)Nc2cccc([N+](=O)[O-])c2)CC1	Luciferin 4-monooxygenase (Photinus pyralis)	N
Cc1cccc(NC(=O)COc2ccccc2C)n1	Luciferin 4-monooxygenase (Photinus pyralis)	Y
Cc1c(NC(=O)CSc2nnc(-c3cccnc3)n2N)c(=O)n(-c2ccccc2)n1C	Luciferin 4-monooxygenase (Photinus pyralis)	N
CCC(=O)N1CCc2cc(CNC(=O)Nc3ccccc3Cl)ccc21	Luciferin 4-monooxygenase (Photinus pyralis)	N
COc1ccc(N=C(C)c2sc3ccccc3c2O)cc1	Luciferin 4-monooxygenase (Photinus pyralis)	Y
COc1ccc2[nH]cc(/C=C(/C#N)S(=O)(=O)c3ccccc3)c2c1	Luciferin 4-monooxygenase (Photinus pyralis)	N
O=C(O)c1cccc(NC(=O)c2cc(-c3cccc(Cl)c3)nc3ccccc23)c1	Luciferin 4-monooxygenase (Photinus pyralis)	Y

Dear all, I need the recorded test outcome for Cc1cccc(NC(=O)COc2ccc(Br)cc2C)n1 , thank you.
Y

Answer briefly: the call reported for Cc1cccc(NC(=O)c2cccnc2Cl)n1 in this assay.
N

Which outcome was assigned to O=C(NCC(=O)N(c1ccccc1)C(C(=O)NCC1CCCO1)c1ccccc1)c1cccs1 (centres undefined) in this test?
N

Write down the call the test reported for this molecule. Item: CC(NCC(=O)Nc1ccccc1C(=O)NC1CC1)c1ccccc1Cl (centres undefined)
N

Recorded test call requested for COc1ccccc1-c1nn(Cc2ccccc2)cc1C(=O)N1CCN(c2ncccn2)CC1
N

###

target: Luciferin 4-monooxygenase (Photinus pyralis) (UniProt P08659); assay: qHTS profiling assay for firefly luciferase inhibitor/activator using purifed enzyme and Km concentrations of substrates (counterscreen for miR-21 project); conditions: purified FLuc, luminescence inhibition; series mostly up to 57.5 µM; note: nearly all actives have a fitted effect of over 55% in size
Sequence (P08659 whole entry, looked up): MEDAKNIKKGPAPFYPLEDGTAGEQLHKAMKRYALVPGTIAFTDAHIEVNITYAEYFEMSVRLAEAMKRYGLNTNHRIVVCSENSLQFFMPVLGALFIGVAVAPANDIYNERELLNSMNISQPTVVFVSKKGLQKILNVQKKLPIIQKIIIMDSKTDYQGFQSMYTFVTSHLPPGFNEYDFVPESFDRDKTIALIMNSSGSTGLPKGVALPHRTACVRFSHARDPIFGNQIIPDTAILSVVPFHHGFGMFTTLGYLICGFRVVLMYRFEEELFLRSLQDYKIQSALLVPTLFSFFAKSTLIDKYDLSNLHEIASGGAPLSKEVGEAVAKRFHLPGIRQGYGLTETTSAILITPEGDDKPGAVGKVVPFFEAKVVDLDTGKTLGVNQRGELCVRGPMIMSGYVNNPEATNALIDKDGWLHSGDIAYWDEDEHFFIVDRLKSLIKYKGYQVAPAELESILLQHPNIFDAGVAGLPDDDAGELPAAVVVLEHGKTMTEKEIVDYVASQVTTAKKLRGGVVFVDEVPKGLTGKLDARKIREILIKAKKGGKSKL
The whole screen tested about 360,000 compounds, of which about 25,000 (6.9%) were called active. About 9% were inconclusive and are not listed. Calls follow the shape of the dose curve; as a rule, active = well fitted inhibition curve with a large enough effect; inconclusive = small, poorly fitted or top-dose-only effect; inactive = flat fitted curve, though single readings scatter. For the sample, actives were picked, then their nearest neighbours and some compounds at random.
Your reply should match one of these outcome classes. Yes = active, No = inactive

Example entries begin here.
smiles structure	target	group
CCCCCN1CC(O)=C(c2nc(-c3ccc(Cl)cc3)cs2)C1=N	Luciferin 4-monooxygenase (Photinus pyralis) (UniProt P08659)	No
Cc1ncc(CC(=O)n2cc(C(=O)c3cc(Cl)ccc3O)cn2)s1	Luciferin 4-monooxygenase (Photinus pyralis) (UniProt P08659)	No
COC(=O)c1ccccc1NC(=O)c1cnn(-c2ccc(F)cc2)c1-n1cccc1	Luciferin 4-monooxygenase (Photinus pyralis) (UniProt P08659)	No
CCc1ccc(Oc2coc3cc(O)ccc3c2=O)cc1	Luciferin 4-monooxygenase (Photinus pyralis) (UniProt P08659)	Yes

Which outcome was assigned to COc1ccc(Oc2coc3cc(OC(=O)c4cncc(Br)c4)ccc3c2=O)cc1 in this test?
No

# fetch the recorded call for CCCc1c(C(=O)O)cnn1-c1ccc(Cl)cc1 here
No

###

molecular target: Luciferin 4-monooxygenase (Photinus pyralis) (UniProt P08659); experiment: qHTS profiling assay for firefly luciferase inhibitor/activator using purifed enzyme and Km concentrations of substrates (counterscreen for miR-21 project); details: purified FLuc, luminescence inhibition; series mostly up to 57.5 µM; note: nearly all actives have a fitted effect of over 55% in size; note: potency is the fitted concentration of half-maximal effect
Among all 360,000 compounds or so, about 25,000 (6.9%) were called active. Not shown: some 9% with an inconclusive outcome. Only a selection was taken, and actives are over-represented in it overall.
measured attribute: Potency

In the examples that follow, each entry is paired with its recorded Potency.
compound	reading
Cc1nn2c(=O)cc(COC(=O)CNC(=O)c3ccc(F)cc3)nc2s1	inactive
Cc1onc(C(=O)NN)c1-c1csc(COc2ccccc2)n1	inactive
CC(C)(C)C(=O)OCc1nc(-c2ccc(O)c(O)c2)cs1	4.26 µM (active)
Cc1ccc(C)c(N2CCN(S(=O)(=O)c3ccc4c(c3)C(C(C)C)C(=O)N4)CC2)c1 (stereo not given)	inactive

Entry Cc1cccc(Cn2c(CN3CCC(C(=O)NCc4ccccc4Cl)CC3)cc3ccccc32)c1 : reported Potency = ?
inactive

###

molecular target: Luciferin 4-monooxygenase (Photinus pyralis); assay: qHTS profiling assay for firefly luciferase inhibitor/activator using purifed enzyme and Km concentrations of substrates (counterscreen for miR-21 project); conditions: purified FLuc, luminescence inhibition; series mostly up to 57.5 µM; note: nearly all actives have a fitted effect of over 55% in size; note: potency is the fitted concentration of half-maximal effect
About 25,000 (6.9%) of roughly 360,000 compounds were called active. Inconclusive results (about 9%) are left out. The sample as a whole holds a higher share of actives than the screen did.
measured attribute: Potency

smiles structure	Potency
COc1ccc(Nc2ncnc3sc(-c4ccccc4)cc23)c(OC)c1	19 µM (active)
CSc1ccccc1NC(=O)COC(=O)CCCOc1ccc(C)cc1	inactive
COc1cc(/C=C(/NC(=O)c2ccc(Cl)cc2Cl)C(=O)O)cc(OC)c1OC	inactive
Cc1ccc(C)c(NC(=O)COC(=O)CSc2ccccc2)c1	inactive
COc1ccc(NC(=O)c2sc(N3CCOCC3)nc2-c2ccccc2)c(OC)c1	inactive

Now let's try a different one.
Find the recorded Potency belonging to COc1ccc(C(=O)NCC2CCCCC2)cc1S(=O)(=O)N1CCCC1 and report it.
inactive

###

molecular target: Luciferin 4-monooxygenase (Photinus pyralis) (UniProt P08659); experiment: qHTS profiling assay for firefly luciferase inhibitor/activator using purifed enzyme and Km concentrations of substrates (counterscreen for miR-21 project); conditions: purified FLuc, luminescence inhibition; series mostly up to 57.5 µM; note: nearly all actives have a fitted effect of over 55% in size
The whole screen tested about 360,000 compounds, of which about 25,000 (6.9%) were called active. Inconclusive results (about 9%) are left out. The call rests on the fitted dose curve; in most records, active means well fitted inhibition curve with a large enough effect; inconclusive means small, poorly fitted or top-dose-only effect; inactive means flat fitted curve, though single readings scatter. The sample as a whole holds a higher share of actives than the screen did.
Hi! Could you answer with just one of these? active, inactive

Reference set (3 entries):
smiles structure	target	group
O=C(CNC(=O)c1ccc(F)cc1)c1ccccc1	Luciferin 4-monooxygenase (Photinus pyralis) (UniProt P08659)	active
O=C(CNC(=O)c1ccccc1F)c1ccc(Br)cc1	Luciferin 4-monooxygenase (Photinus pyralis) (UniProt P08659)	active
NS(=O)(=O)c1ccc(CCNC(=O)COC(=O)COc2cccc(C(F)(F)F)c2)cc1	Luciferin 4-monooxygenase (Photinus pyralis) (UniProt P08659)	inactive

How did this test come out for COc1ccccc1Nc1c2c(nc3ccc(NC(=O)/C=C/c4cc(OC)c(OC)c(OC)c4)cc13)CCCC2 ?
inactive

Given COc1cc(/C=N/NC(=O)c2ccoc2C)ccc1OCCN1CCCCC1 , state the outcome it received in this test.
inactive

Recorded test call requested for COc1ccc(COC(=O)c2n[nH]c3ccccc23)cc1F
active

Hi team, can someone confirm the assay call for COc1cccc(CNCc2c(C(=O)O)n(Cc3ccc(C)cc3)c3cc(C)ccc23)c1OC ?
inactive

Hi team, can someone confirm the assay call for O=C(CNC(=O)c1ccccc1)NCC(=O)OCC(=O)c1ccccc1 ?
inactive

Entry COc1ccc(NC(=O)COC(=O)c2n[nH]c3ccccc23)c(OC)c1 : call = ?
inactive

Each molecule tested received a call. Report the one for CC(C)OCCCn1c(SCC(=O)c2ccccc2)nc2c(sc3ccccc32)c1=O .
inactive

Numbers sourced from PubChem BioAssay AID588342.
